Would you mind telling me the reported pKd of each entry?
TGT: T1, GFP-9S library array, motif 4 ND N98L;D124M (synthetic construct, N98L;D124M)
T1 chain: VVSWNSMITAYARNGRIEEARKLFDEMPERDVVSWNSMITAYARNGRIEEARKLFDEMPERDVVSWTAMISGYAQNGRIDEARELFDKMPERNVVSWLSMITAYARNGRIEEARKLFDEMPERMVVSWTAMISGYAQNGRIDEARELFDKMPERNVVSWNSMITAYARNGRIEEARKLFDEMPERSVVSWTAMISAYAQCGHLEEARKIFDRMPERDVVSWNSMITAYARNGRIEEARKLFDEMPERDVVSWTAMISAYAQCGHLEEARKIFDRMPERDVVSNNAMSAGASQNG
ASSAY_INFO: high-throughput RNA pulldown from lysate on Ni-NTA beads; HRP: 50 mM Tris pH 8, 150 mM NaCl, 1 mM beta-mercaptoethanol, 50 ug/ml BSA, 3 ug/ml yeast RNA, 0.5% heparin; ITC and FP: Tris pH 8, 200 mM KCl, 5% glycerol; MST: 50 mM Tris pH 8, 200 mM NaCl, 1 mM DTT, BSA, heparin, 0.05% Tween 20
MEASUREMENT_CONTEXT: tags: N-terminal His-eGFP; label: 5' IRDye 800CW
One number for each entry, as −log10 of the molar value.

AUUAAACGUGA (ssRNA) [IR-rpoA-A] | 6.42

# input for lookup
Lookup: pKd for AUUAUACGUGA (ssRNA) [IR-rpoA-U] ?
Found: 6.75
